Just for reference, patent US4778816A is where these values come from.

Assay: Acute toxicity in rat
Set-up: species or system Rat (wistar)
Details: in vivo, iv, rat male, i.v., read-out: Acute toxicity LD 50
measurementType: LD50 (mg/kg)
Value expressed in mg/kg; do not type the unit.

IN: Quick check: LD50 of CCCCOC(=O)C(=O)Nc1cccc(-c2nnn[nH]2)c1 ?
OUT: 1110

###

Experiment: Acute toxicity in rat
Parameters: species or system Rat (wistar)
Details: in vivo, sc, rat female, s.c., read-out: Acute toxicity LD 50
measurementType: LD50

IN: Need LD50, item CCCCOC(=O)C(=O)Nc1cccc(-c2nnn[nH]2)c1
OUT: > 4000 mg/kg

###

Test: Acute toxicity in mouse
Parameters: species or system Mouse (ddy)
Conditions: in vivo, ip, mouse female, i.p., read-out: Acute toxicity LD 50
measurementType: LD50 (mg/kg)
Value expressed in mg/kg; do not type the unit.

IN: Recorded LD50 for CCCCOC(=O)C(=O)Nc1cccc(-c2nnn[nH]2)c1 [MTB] , please?
OUT: 1160

###

Assay: Acute toxicity in rat
Design: species or system Rat (wistar)
Details: in vivo, iv, rat female, i.v., read-out: Acute toxicity LD 50
measurementType: LD50 (mg/kg)
Numeric only. Scale: mg/kg

IN: Which measured LD50 value corresponds to CCCCOC(=O)C(=O)Nc1cccc(-c2nnn[nH]2)c1 ?
OUT: 1160

###

Assay: Acute toxicity in mouse
Set-up: species or system Mouse (ddy)
Settings: in vivo, po, mouse female, p.o., read-out: Acute toxicity LD 50
measurementType: LD50

IN: For CCCCOC(=O)C(=O)Nc1cccc(-c2nnn[nH]2)c1 , what is its reported LD50?
OUT: > 4000 mg/kg

###

Assay: Acute toxicity in dog
Type: in vivo, Dog (beagle)
Conditions: in vivo, po; dog male, p.o.; read-out: Acute toxicity LD 50
measurementType: LD50

IN: Look up LD50 for this molecule: CCCCOC(=O)C(=O)Nc1cccc(-c2nnn[nH]2)c1 [MTB]
OUT: > 4000 mg/kg

###

Test: Acute toxicity in rat
Parameters: species or system Rat (wistar)
Conditions: in vivo, ip, rat female, i.p., read-out: Acute toxicity LD 50
measurementType: LD50 (mg/kg)
Quick note: give the figure in mg/kg, leave out the unit.

IN: Sample CCCCOC(=O)C(=O)Nc1cccc(-c2nnn[nH]2)c1 [MTB] — what was its LD50?
OUT: 1430
